molecular target: T1, recombinant human Tau monomer, 2N4R isoform (amino acids 2-441) (human, UniProt P10636-8 2-441); experiment: SPR high-resolution kinetics, hIgG1
T1 construct: range 2-441; N-terminal His-tag removed with TEV protease; also called monomeric Tau
T1 sequence (P10636 other isoform, or with tags, fused parts or gaps limits assumed): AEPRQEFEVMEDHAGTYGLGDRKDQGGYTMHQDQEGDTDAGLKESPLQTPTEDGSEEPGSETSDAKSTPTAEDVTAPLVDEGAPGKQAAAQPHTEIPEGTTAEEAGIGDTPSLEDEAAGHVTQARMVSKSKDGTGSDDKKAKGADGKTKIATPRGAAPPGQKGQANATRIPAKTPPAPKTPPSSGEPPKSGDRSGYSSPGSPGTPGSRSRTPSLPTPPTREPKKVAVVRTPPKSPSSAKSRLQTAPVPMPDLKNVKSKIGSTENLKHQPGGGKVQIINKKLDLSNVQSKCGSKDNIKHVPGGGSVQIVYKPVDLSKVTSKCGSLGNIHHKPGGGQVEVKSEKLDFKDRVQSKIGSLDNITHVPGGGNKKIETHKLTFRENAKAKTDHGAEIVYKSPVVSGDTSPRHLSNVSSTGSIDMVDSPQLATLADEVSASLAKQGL
Can you tell me koff for the items I'm about to list?
The reply should consist of the numeric value with the unit placed after it.

Take a look at these entries with their results.
INSERT INTO results (binder, value_measured) VALUES
  ('hu125B11.v28 (HC4+LC4) (antibody, IgG1, V domains shown, also called hu125B11 HC4 + 125B11 LC4) VH: EVQLVESGGGLVQPGGSLRLSCAASRFIFSNYWMNWVRQAPGKGLEWVAQIRLKSDNYATHYAESVKGRFTISRDNSKNTLYLQMNSLRAEDTAVYYCTGGTTYWGQGTLVTVSS VL: DIQMTQSPSSLSASVGDRVTITCKASQNVGTAVAWYQQKPGKAPKLLIYSASIRYTGVPSRFSGSGSGTDFTLTISSLQPEDFATYYCQQFRTYPYTFGQGTKVEIK', '0.0007 s⁻¹'),
  ('hu94B2.v105 (94B2.HC1 + 94B2.LC13) (antibody, IgG1, V domains shown, also called hu94B2 HC1 + LC13) VH: EVQLVQSGAEVKKPGASVKVSCKASGYSLTGYTMNWVRQAPGQGLEWIGLISPYNGVTSYNQKFKGRATLTVDKSTSTAYLELSSLRSEDTAVYYCARQGAYWGQGTLVTVSS VL: DIVMTQTPLSLPVTPGQPASISCKSSQSLLDSDGKTYLNWLLQKPGQSPQRLIYLVSKLDSGVPDRFSGSGSGTDFTLKISRVEAEDVGVYYCWQGTHFPWTFGQGTKVEIK', '0.0003 s⁻¹'),
  ('hu125B11.v26 (HC4+LC2) (antibody, IgG1, V domains shown, also called hu125B11 HC4 + 125B11 LC2) VH: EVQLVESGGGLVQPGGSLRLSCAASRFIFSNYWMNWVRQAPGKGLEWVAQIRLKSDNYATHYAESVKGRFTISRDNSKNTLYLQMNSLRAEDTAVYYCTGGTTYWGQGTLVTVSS VL: DIQMTQSPSSLSASVGDRVTITCKASQNVGTAVAWYQQKPGKAPKLLIYSASIRYTGVPSRFSGSGSGTDFTLTISSLQPEDFATYFCQQFRTYPYTFGQGTKVEIK', '0.0007 s⁻¹');

Okay, now this binder:
Need koff, item hu125B11.v17 (HC3+LC1) (antibody, IgG1, V domains shown, also called hu125B11 HC3 + 125B11 LC1) VH: EVQLVESGGGLVQPGGSLRLSCAASRFIFSNYWMNWVRQAPGKGLEWVAQIRLKSDNYATHYAESVKGRFTISRDDSKNTLYLQMNSLRAEDTAVYYCTGGTTYWGQGTLVTVSS VL: DIQMTQSPSSLSASVGDRVTITCKASQNVGTAVAWYQQKPGKSPKLLIYSASIRYTGVPSRFSGSGSGTDFTLTISSLQPEDFATYFCQQFRTYPYTFGQGTKVEIK
0.0008 s⁻¹
